run description: ATG_TCF_b_cat_CIS: Attagene CIS-FACTORIAL HepG2 Assay for human T-Cell-Factor with beta-catenin (TCF/b-cat) (AID 2282965)
measurement setup: HepG2 TCF/beta-catenin cis-reporter transcription, actives raise or lower the signal
Active and inactive are the calls of the source. Rule for the calls: active = hit-call score of the fitted dose curve at least 0.9, where 1 is the maximum; inactive = score below 0.9.
Returns: one label drawn from t = active, f = inactive

Past entries and their recorded results:
>>> print(df.to_string())
                                   compound  category
0                   NC(N)=NC(N)=NCCc1ccccc1         f
1                      NC(=O)c1c(Cl)cccc1Cl         f
2  CC(C)(C)c1cc(CCC(=O)OCCSCCOC(=O)CCc2cc(C(C)(C)C)c(O)c(C(C)(C)C)c2)cc(C(C)(C)C)c1O         f

Continue with the next compound.
Input line: # outcome recorded in this test, key = `CCCCCCCCCCCCOC(C)=O`
Output line: f
